- System: SNB-19 CNS
- TEST_NAME: NCI-60 one-dose screen, 48 h (100 = growth as untreated, 0 = no growth, -100 = all killed)
- MEASUREMENT_PARAMETERS: 10 µM unless noted
Compounds without any hit were thinned out: in the full panel of roughly 83,000, 20% have a hit.
MEASUREMENT_LABEL: growth (%)
One number for each entry, in %.

Worked examples, 8 compounds total:
O=C1N/C(=N/O)S/C1=C/c1cn(-c2ccccc2)nc1-c1ccccc1 : 107
O=[N+]([O-])c1ccc(-c2cc3c(Nc4ccc(OCc5cccc(Cl)c5)c(Cl)c4)ncnc3s2)cc1 : 67.6
CC(=O)NCC(=O)Nc1ccc(-c2nnc3ccccn23)nc1.CC(=O)NCC(=O)Nc1ccc(-c2nnc3ccccn23)nc1.[Pt+2] : 107
CN1CCN(c2ccc(Nc3ncc(Cl)c(NC[C@@H]4CCCO4)n3)cc2)CC1 : 53.9
Cc1cc(NS(=O)(=O)c2ccccc2)c(OS(=O)(=O)c2ccccc2)cc1C : 98.1
COc1ccc(/C(C)=C(\c2ccc(Cl)cc2)c2ccc(OCCN3CCCCCC3)cc2)cc1F : 65.9
COc1ccc(-c2nnc(-c3ccc4c(c3)nc(-c3ccccc3)n4C3CCCCC3)o2)cc1 : 86
Cc1[nH]c(-c2nc3ccccc3[nH]2)c(C)c1C(=O)NNc1ccc(Cl)cc1 : 87.1

// batch mode: one growth value per listed entry
1. CC(C)(C)OC(=O)N1Cc2cc3ccccc3nc2C1CO (stereo not given)
2. CCn1c(Sc2nnc(NC(=O)CCN3CCCC3)s2)nc2c1c(=O)n(C)c(=O)n2C
3. N#Cc1c(NC(=O)c2cccc(C(F)(F)F)c2)sc2c1CCC(=O)C2
4. O=C1C2=C(CCN(Cc3ccccc3)C2)N2CCN=C2N1Cc1ccc(C(F)(F)F)cc1

**Result**
1: 111; 2: 104; 3: 12.3; 4: 27.7

List growth for every entry below, keeping the order given.
1. COc1cc(C2CC(c3ccc(Nc4nc(Nc5ccc(F)cc5)nc(Nc5ccc(Cl)cc5)n4)cc3)=NN2C(C)=O)cc(OC)c1OC (stereo not given)
2. O=C1/C(=C/c2ccccc2[N+](=O)[O-])COc2ccc(O)c(O)c21
3. Cc1[nH]c(-c2nc3ccccc3[nH]2)c(C)c1C(=O)N1CCOCC1

**Result**
1: 74.5; 2: 26.5; 3: 88.7

For the 5 compounds below, give their growth values.
1. O=C1Nc2ccccc2/C1=N/N=C/c1c[nH]c2ccccc12
2. COc1ccc(-c2cn(-c3cccc(C(=O)/C=C/c4cc(OC)c(OC)c(OC)c4)c3)c(=O)[nH]2)cc1
3. O=C(/C=C/C12c3ccccc3C(c3ccccc31)C1C(=O)N(c3ccccc3)C(=O)C12)c1ccccc1 (stereo not given)
4. O=C(CC1Sc2ccccc2NC1=O)NNc1ccc(F)cc1 (stereo not given)
5. CCN(CC)CCCNC(=O)c1ccc(N)cc1O

**Result**
88.1
34.2
31.2
84.5
106
